Data provenance is paper PMC5635026.

Target: pVHL19 (Homo sapiens, UniProt P40337)
Sequence (P40337 54-213): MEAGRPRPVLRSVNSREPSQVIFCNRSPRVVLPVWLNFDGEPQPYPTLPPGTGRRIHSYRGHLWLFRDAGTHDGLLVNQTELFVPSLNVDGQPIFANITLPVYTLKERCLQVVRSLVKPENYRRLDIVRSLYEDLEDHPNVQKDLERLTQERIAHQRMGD
Sequence (Q15369 17-112 partner limits assumed): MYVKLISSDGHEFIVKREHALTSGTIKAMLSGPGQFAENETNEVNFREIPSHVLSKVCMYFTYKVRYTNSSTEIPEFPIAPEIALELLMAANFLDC
Sequence (Q15370 1-104 partner limits assumed): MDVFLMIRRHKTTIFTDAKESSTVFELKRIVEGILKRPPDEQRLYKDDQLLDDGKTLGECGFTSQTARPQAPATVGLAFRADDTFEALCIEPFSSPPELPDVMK
Test: Isothermal titration calorimetry (ITC) against VCB complex with short VHL isoform (V19CB)
Type: binding
Set-up: made in house
Conditions: ITC, 25 °C, stoichiometry of binding, pVHL19 (V19CB)
REPORTED METRIC: n

# example entries with known answers
What n value was documented for this molecule, Cc1ncsc1-c1ccc(CNC(=O)[C@@H]2C[C@@H](O)CN2C(=O)[C@@H](NC(=O)COCCOCCOCCOCC(=O)N[C@H](C(=O)N2C[C@H](O)C[C@H]2C(=O)NCc2ccc(-c3scnc3C)cc2)C(C)(C)C)C(C)(C)C)cc1 ? 0.98

// lookup n for Cc1ncsc1-c1ccc(CNC(=O)[C@@H]2C[C@@H](O)CN2C(=O)[C@@H](NC(=O)COCCOCCOCCOCCOCC(=O)N[C@H](C(=O)N2C[C@H](O)C[C@H]2C(=O)NCc2ccc(-c3scnc3C)cc2)C(C)(C)C)C(C)(C)C)cc1 0.73

(P) Cc1ncsc1-c1ccc(CNC(=O)[C@@H]2C[C@@H](O)CN2C(=O)[C@@H](NC(=O)COCCOCCOCCOCCOCCOCC(=O)N[C@H](C(=O)N2C[C@H](O)C[C@H]2C(=O)NCc2ccc(-c3scnc3C)cc2)C(C)(C)C)C(C)(C)C)cc1
(Q) Cc1ncsc1-c1ccc(CNC(=O)[C@H]2C[C@@H](O)CN2C(=O)[C@H](NC(=O)COCCOCCOCCOCCOCC(=O)N[C@H](C(=O)N2C[C@H](O)C[C@H]2C(=O)NCc2ccc(-c3scnc3C)cc2)C(C)(C)C)C(C)(C)C)cc1
Out of P and Q , name the one with the higher n. // output: label of the selected item Q
(Q: 0.964, P: 0.6)

###

Target: pVHL30 (Homo sapiens, UniProt P40337)
Sequence (P40337 whole entry): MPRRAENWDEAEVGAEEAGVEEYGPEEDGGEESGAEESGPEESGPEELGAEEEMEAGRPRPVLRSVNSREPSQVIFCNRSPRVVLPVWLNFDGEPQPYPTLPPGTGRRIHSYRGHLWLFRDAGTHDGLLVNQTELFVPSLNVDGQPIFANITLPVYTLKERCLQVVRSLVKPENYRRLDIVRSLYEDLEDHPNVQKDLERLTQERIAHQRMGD
Experiment: Immunoblot of pVHL30 protein level in HeLa cells after compound treatment
Format: cell-based
Set-up: endogenous in cells; host or cells: HeLa
Conditions: 1 µM, 10 h, DMSO = 100, Fig. 4a, read-out: pVHL30 band quantification normalized to 0.1% DMSO
REPORTED METRIC: remaining activity at 1 µM (%)

Dear colleague, I am looking for the recorded remaining activity at 1 µM of the following compound: Cc1ncsc1-c1ccc(CNC(=O)[C@@H]2C[C@@H](O)CN2C(=O)[C@@H](NC(=O)C2(C#N)CC2)C(C)(C)C)c(OCCOCCOCCOCCOCCOc2cc(-c3scnc3C)ccc2CNC(=O)[C@@H]2C[C@@H](O)CN2C(=O)[C@@H](NC(=O)C2(C#N)CC2)C(C)(C)C)c1 126

(I) Cc1ncsc1-c1ccc(CNC(=O)[C@@H]2C[C@@H](O)CN2C(=O)[C@@H](NC(=O)COCCOCCOCCOCCOCCOCC(=O)N[C@H](C(=O)N2C[C@H](O)C[C@H]2C(=O)NCc2ccc(-c3scnc3C)cc2)C(C)(C)C)C(C)(C)C)cc1
(II) Cc1ncsc1-c1ccc(CNC(=O)[C@@H]2C[C@@H](O)CN2C(=O)[C@@H](NC(=O)COCCOCCOCCOCC(=O)N[C@H](C(=O)N2C[C@H](O)C[C@H]2C(=O)NCc2ccc(-c3scnc3C)cc2)C(C)(C)C)C(C)(C)C)cc1
Among I and II , whose measured remaining activity at 1 µM is the smaller figure? Refer to your chosen entry by its label in the reply. I
(I: 1%, II: 19%)
